- ASSAYED SYSTEM: hSTING-H232 (Homo sapiens, UniProt Q86WV6)
- Sequence (Q86WV6 whole entry): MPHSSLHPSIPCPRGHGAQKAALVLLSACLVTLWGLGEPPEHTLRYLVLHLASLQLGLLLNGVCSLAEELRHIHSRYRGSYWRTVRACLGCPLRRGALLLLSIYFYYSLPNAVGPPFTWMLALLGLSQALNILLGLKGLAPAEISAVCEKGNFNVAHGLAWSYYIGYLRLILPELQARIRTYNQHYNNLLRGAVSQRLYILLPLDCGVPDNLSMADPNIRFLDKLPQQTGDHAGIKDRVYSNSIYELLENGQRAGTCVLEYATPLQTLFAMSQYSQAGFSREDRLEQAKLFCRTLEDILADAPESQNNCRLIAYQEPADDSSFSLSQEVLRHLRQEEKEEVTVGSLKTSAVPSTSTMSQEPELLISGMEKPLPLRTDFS
- PROCEDURE SUMMARY: Cellular Functional Assay I: ISRE-SEAP reporter in HEK-293T-Dual Null cells transfected with hSTING-H232
- TEST SETTINGS: HEK-293T-Dual Null, hSTING-H232
pEC50: −log10 of the molar value. Where a name gives a salt, the structure may show the parent alone.
METRIC: pEC50

CCn1nc(C)cc1C(=O)Nc1nc2cc(C(N)=O)sc2n1C/C=C/Cn1c(NC(=O)c2cc(C)nn2CC)nc2cc(C(N)=O)cc(OCCCNC)c21    6.30 to 9.00
CCn1nc(C)cc1C(=O)Nc1nc2cc(C(N)=O)cnc2n1C/C=C/Cn1c(NC(=O)c2cc(C)nn2CC)nc2cc(C(N)=O)cc(OC)c21    > 9.00
CCn1nc(C)cc1C(=O)Nc1nc2cc(C(N)=O)cnc2n1C/C=C/Cn1c(NC(=O)c2cc(C)nn2CC)nc2cc(C(N)=O)cc(OCCCN(C)CCOC)c21    6.30 to 9.00

Query block: Tell me reported pEC50 for CCn1nc(C)cc1C(=O)Nc1nc2cc(C(N)=O)cnc2n1C/C=C/Cn1c(NC(=O)c2cc(C)nn2CC)nc2cc(C(N)=O)cc(C)c21.Cl.Cl.Cl.Cl , tested with hSTING-H232 (Homo sapiens, UniProt Q86WV6).
Result block: > 9.00

Query block: Tell me reported pEC50 for [2H]C1([2H])OC([2H])([2H])C([2H])([2H])N(CCCOc2cc(C(N)=O)cc3nc(NC(=O)c4cc(C)nn4CC)n(C/C=C/Cn4c(NC(=O)c5cc(C)nn5CC)nc5cc(C(N)=O)cnc54)c23)C1([2H])[2H] , tested with hSTING-H232 (Homo sapiens, UniProt Q86WV6).
Result block: 6.30 to 9.00

Query block: Tell me reported pEC50 for CCn1nc(C)cc1C(=O)Nc1nc2cc(C(N)=O)cnc2n1C/C=C/Cn1c(NC(=O)c2cc(C)nn2CC)nc2cc(C(N)=O)cc(OCCCN3CCN(C(C)=O)CC3)c21 , tested with hSTING-H232 (Homo sapiens, UniProt Q86WV6).
Result block: 6.30 to 9.00

Query block: Tell me reported pEC50 for CCn1nc(C)cc1C(=O)Nc1nc2cc(C(N)=O)sc2n1C/C=C/Cn1c(NC(=O)c2cc(C)nn2CC)nc2cc(C(N)=O)cc(OCCCN(C)C)c21 , tested with hSTING-H232 (Homo sapiens, UniProt Q86WV6).
Result block: 6.30 to 9.00

Query block: Tell me reported pEC50 for CCn1nc(C)cc1C(=O)Nc1nc2cc(C(N)=O)cc(C)c2n1C/C=C/Cn1c(NC(=O)c2cnc(C)s2)nc2cc(C(N)=O)cnc21 [Compound C, Hydrochloride] , tested with hSTING-H232 (Homo sapiens, UniProt Q86WV6).
Result block: 6.30 to 9.00

Query block: Tell me reported pEC50 for CCn1nc(C)cc1C(=O)Nc1nc2cc(C(N)=O)cnc2n1C/C=C/Cn1c(NC(=O)c2cc(C)nn2CC)nc2cc(C(N)=O)cc(OCCCN(C)C)c21 , tested with hSTING-H232 (Homo sapiens, UniProt Q86WV6).
Result block: 6.30 to 9.00

Query block: Tell me reported pEC50 for CCn1nc(C)cc1C(=O)Nc1nc2cc(C(N)=O)cnc2n1C/C=C/Cn1c(NC(=O)c2cc(C)nn2CC)nc2cc(C(N)=O)cnc21 , tested with hSTING-H232 (Homo sapiens, UniProt Q86WV6).
Result block: 6.30 to 9.00
